Test description: in vitro
Condition info: human, hela cells, % viability
Measured viability at 28.5 h, 10 µM of individual entries
// note: answer is a bare numeric in %

Query: // viability at 28.5 h, 10 µM lookup, key: O=C(Cn1c(=O)n(Cc2ccco2)c2ncccc21)N1CCCC1 [CBK284708]
Response: 88.9

Query: Give the measured viability at 28.5 h, 10 µM of O=C(/C=C/c1cccc([N+](=O)[O-])c1)NC(=S)Nc1ccc(-c2nc3ccccc3[nH]2)cc1 [CBK264376] .
Response: 102

Query: Data request, read-out viability at 28.5 h, 10 µM, for CC(C)c1cc(C(=O)N2CCCCCC2c2ccn(C)n2)no1 (centres unmarked) [CBK283048]
Response: 85.3

Query: // viability at 28.5 h, 10 µM lookup, key: O=C(Nc1ccc(-c2ccc(F)cc2)cc1)c1ccc(N2C(=O)CCC2=O)cc1 [CBK285683]
Response: 98

Query: viability at 28.5 h, 10 µM; subject: Cn1cc(CCNC(=O)NC2CCN(Cc3ccccn3)CC2)cn1 [CBK305297]
Response: 102

Kindly review the next molecule as well.
Query: What value of viability at 28.5 h, 10 µM has been recorded for this entry: O=C(c1ccccc1)c1cn[nH]c1-c1ccccc1O [CBK287970]
Response: 77.8

###

Test description: in vitro
Condition info: human, hela cells, % viability
Readout type: viability at 28.5 h, 10 µM
Write down the value, and be sure its unit follows.

Examples with their reported viability at 28.5 h, 10 µM follow.
Query: Field request: viability at 28.5 h, 10 µM | item: COC(=O)CCCC(=O)n1c(=O)n(CC2CCCCC2)c2ccccc21 [CBK106524]
Response: 112%

Query: So what does the record say about viability at 28.5 h, 10 µM for CCCn1cc(CN2C3CCC2CC(O)(c2ccc(F)cc2)C3)cn1 (centres unmarked) [CBK282971] ?
Response: 91.5%

Query: # get_value(readout='viability at 28.5 h, 10 µM', item= CC(=O)N1CCCC(c2[nH]c3cccnc3c2CN(C)C)C1 (centres unmarked) [CBK283469] )
Response: 89.1%

Query: Recorded viability at 28.5 h, 10 µM for O=C(Cc1c[nH]cn1)N1CCCC2(CCN(C(=O)c3cc(F)c(F)cc3F)C2)C1 (centres unmarked) [CBK137072] , please?
Response: 95.6%

Further cases:
Query: Give the measured viability at 28.5 h, 10 µM of Cc1ccc(-n2c(=O)[nH]c3c(C(N)=O)nc(-c4ccccc4)nc32)cc1C [CBK287718] .
Response: 84.7%

###

Test description: in vitro
Condition info: human, hela cells, % viability
Below, each of the molecules is paired with its reported viability at 28.5 h, 10 µM value.
Respond with the bare value in %.

Examples with their reported viability at 28.5 h, 10 µM follow.
Query: For the molecule shown here, CC(CO)(CO)NCc1ccc(-c2ccccc2)cc1 [CBK268325C] , give the reported viability at 28.5 h, 10 µM.
Response: 78.9

Query: Fill in the blank: the reported viability at 28.5 h, 10 µM of O=C(CCn1cnc2ccccc2c1=O)Nc1ccc(Cl)c(Cl)c1 is ____.
Response: 89.6

Query: Would you mind telling me what viability at 28.5 h, 10 µM value was observed for Cc1nnc(-c2cccc(S(=O)(=O)Nc3nnc(C(F)(F)F)s3)c2)o1 ?
Response: 99.1

New cases:
Query: Please look up its viability at 28.5 h, 10 µM: CCCS(=O)(=O)NC(C)c1cnn(-c2ccc(OC)cc2)c1C (stereo not shown)
Response: 115

Query: Could you share which viability at 28.5 h, 10 µM value was measured for Cc1cc(N)cc(C)c1O [CBK012062C] ?
Response: 89.9

Query: What viability at 28.5 h, 10 µM value was documented for this molecule, Clc1nc(NCCN2CCOCC2)nc(N2CCCCCC2)n1 ?
Response: 98.9

Query: // returns reported viability at 28.5 h, 10 µM for input O=C(O)C1CCCN(C(=O)COc2cc3oc(=O)cc(-c4ccccc4)c3cc2Cl)C1 (stereo not shown)
Response: 90.9

Query: What value of viability at 28.5 h, 10 µM has been recorded for this entry: Cc1cccc(-c2ncc(NC(=O)COc3ccc([N+](=O)[O-])cc3)nc2-c2cccnc2)c1
Response: 97.8

Query: Look up viability at 28.5 h, 10 µM for this molecule: CC1(C)CC(=O)c2sc(NC(=O)c3ccc(OC(F)(F)F)cc3)nc2C1
Response: 109

Query: If you can, please state the reported viability at 28.5 h, 10 µM value of CCN(Cc1ccncc1)C(=O)NCc1cnc(C)cn1 .
Response: 105

###

Test description: in vitro
Condition info: human, hela cells, % viability
viability at 28.5 h, 10 µM listing for selected compounds.
State the answer as a number, implicitly in %.

Query: I am curious: what viability at 28.5 h, 10 µM value has been reported for CCOC(=O)CCNC(=O)c1cncc(-c2ccc(C(=O)N3CCOCC3)cc2)c1 ?
Response: 92.6

New cases:
Query: For O=C(Nc1ccc(N2CCOCC2)c(Cl)c1)c1cccc(-n2cnnc2)c1 , what is its reported viability at 28.5 h, 10 µM?
Response: 95.6

Query: Any idea what viability at 28.5 h, 10 µM was measured for O=C(O)c1ccccc1NC1SC(=O)N(c2ccccc2)C1=O (stereo not shown) ?
Response: 93.7

Query: Could you share which viability at 28.5 h, 10 µM value was measured for O=C(O)CCNS(=O)(=O)c1ccc2ccccc2c1 ?
Response: 98.6

Query: Fill blank: measured viability at 28.5 h, 10 µM of the compound O=S(=O)(c1ccc(NC(=S)NCc2cccnc2)cc1)N1CCOCC1 is ____.
Response: 72.8

Query: Could you tell me which viability at 28.5 h, 10 µM is on file for OC(Cn1c(Cc2ccccc2)nc2ccccc21)Cn1c2ccc(Cl)cc2c2cc(Cl)ccc21 (stereo not shown) ?
Response: 89.4

Query: I would be grateful if you could share the reported viability at 28.5 h, 10 µM for O=C(CSc1ncn(-c2ccccc2)n1)Nc1ccc2[nH]c(=O)[nH]c2c1 .
Response: 106

Query: Data request, read-out viability at 28.5 h, 10 µM, for CC(=O)N1CCCc2cc(C(O)CN3CCC(O)(c4ccc(F)cc4)CC3)ccc21 (stereo not shown)
Response: 88.1

###

# maps each entry to its viability at 28.5 h, 10 µM
Test description: in vitro
Condition info: human, hela cells, % viability
Just so you know, I need the unit written after the number.

Query: I'd like to know its viability at 28.5 h, 10 µM. The molecule in question is FC(F)(F)c1ccc(N2CCNCC2)nc1OCc1ccccc1COc1ccccc1 [CBK003965A]
Response: 91.9%

Continuing:
Query: viability at 28.5 h, 10 µM; subject: OC(CNCc1cccs1)c1ccccc1 (centres unmarked)
Response: 90.8%

Query: Bench note: what viability at 28.5 h, 10 µM did CN(C)CCNc1nc(-c2ccncc2)cnc1N show?
Response: 102%

Query: Give the measured viability at 28.5 h, 10 µM of COc1cc2c(cc1OC)C1(CCN(C(=O)Nc3ccc(F)cc3F)CC1)NC(=O)C2 .
Response: 84.8%

Query: Item CCc1cnccc1C(=O)N1CCC(NC(=O)c2cnn(C)c2)CC1 has what recorded viability at 28.5 h, 10 µM?
Response: 105%

Query: Request the reported viability at 28.5 h, 10 µM associated with C[C@H](c1ccccc1)n1c(=O)[nH]c2ncc(-c3cccc4ncccc34)nc21
Response: 89.6%

Query: Given Nc1ccc(S(=O)(=O)Nc2nccc(/C=C/c3ccc(Cl)cc3)n2)cc1 , state its recorded viability at 28.5 h, 10 µM.
Response: 105%

Query: Quick one: viability at 28.5 h, 10 µM of COc1ccc(CCC2CCN(C)CC2)c(O)c1 ?
Response: 104%

###

Test description: in vitro
Condition info: human, hela cells, % viability
Readout type: viability at 28.5 h, 10 µM (%)
Give the value, in units of %, as a plain number.

Please review the entries below; each comes with its answer.
Query: Requested field: viability at 28.5 h, 10 µM. Item: CCc1nc2ccc(C(=O)Nc3ccc(Cl)c(Cl)c3)cn2c1N(C)Cc1ccc(OC)cc1 [CBK145585]
Response: 93.6

Query: Given the molecule Cn1ccnc1SCC(=O)Nc1ccc(S(N)(=O)=O)cc1 [CBK263190] , what is its reported viability at 28.5 h, 10 µM?
Response: 84.6

Query: Fill blank: measured viability at 28.5 h, 10 µM of the molecule O=C1C2C(c3ccc(F)cc3)NC(c3ccc(F)cc3)C1C(c1ccc(F)cc1)NC2c1ccc(F)cc1 (stereo not drawn) [CBK261288] is ____.
Response: 110

Query: Would you mind telling me what viability at 28.5 h, 10 µM value was observed for CC(=O)NC(c1ccccn1)C1CCN(Cc2cccc(F)c2)CC1 (stereo not drawn) [CBK285461] ?
Response: 104

Query: Quick one: viability at 28.5 h, 10 µM of CC(=O)Nc1ccc(S(=O)(=O)Nc2ccc(C(=O)Nc3ccc(F)cc3)cc2)cc1 [CBK050401] ?
Response: 111

Query: What value of viability at 28.5 h, 10 µM has been recorded for this entry: Cc1ccc(N2CCCC2=O)cc1S(=O)(=O)NC(c1ccccc1)c1ccccc1 [CBK286348]
Response: 85.6

Query: Fill in the blank: the reported viability at 28.5 h, 10 µM of Cc1n[nH]c(C)c1Sc1ccccc1/N=C/c1ccc(C(=O)O)cc1 [CBK262055] is ____.
Response: 86.9

Query: Would you kindly share the measured viability at 28.5 h, 10 µM for O=C(c1ccccn1)N(CCc1ccccc1)c1nc2ccccc2s1 [CBK295151] ?
Response: 97.5

# evaluate next
Query: Name the recorded viability at 28.5 h, 10 µM for O=c1[nH]c2ncc(-c3cccc(Br)c3)nc2n1Cc1ccccn1 [CBK065020] .
Response: 101

The measured values listed here are drawn from paper PMC12040169.
